Source listed as patent US20250228958A1.

Field: remaining at 4 h, 20 μM. Provide a value for each of the molecules that follow.
- ASSAY COMMENT: Serum stability test, mouse serum
- Assay type: in vitro ADME
- EXPERIMENTAL PARAMETERS: male, BALB/c CrSlc, mouse, mouse serum; residual ratio: IS ratio at 4 hours relative to 0 hours, 20 μM, 37° C.
Starred links: 1 amine or outer side, 2 acyl side, 3 side chain; linkers in the order of their positions; H or OH if unused. Positions of bridges follow the written chain, without caps; N, C: chain ends. Non-standard residues stand in square brackets, D forms with d. Residues, ends and D or L forms follow the SMILES beside them. 2Nal = N[C@@H](Cc1ccc2ccccc2c1)C(=O)O; Gly(cPent) = N[C@H](C(=O)O)C1CCCC1; Agb = N=C(N)NCC[C@H](N)C(=O)O; hCys = N[C@@H](CCS)C(=O)O; CH2 = C([*:1])[*:2]
Dear colleague, please return just the value in %, with no unit written.

Quote remaining at 4 h, 20 μM reported for N=C(N)NCCC[C@@H]1NC(=O)[C@H](Cc2ccc3ccccc3c2)NC(=O)CSC[C@@H](C(N)=O)NC(=O)[C@H](C2CCCC2)NC(=O)[C@H](Cc2c[nH]c3ccccc23)NC(=O)[C@H](CCCNC(=N)N)NC(=O)[C@@H]2CCSSCC[C@H](NC1=O)C(=O)NCC(=O)N[C@@H](CCNC(=N)N)C(=O)N[C@@H](CC(N)=O)C(=O)N[C@@H](Cc1c[nH]c3ccccc13)C(=O)N2 [Peptide-1] ({CH2CO}-[2Nal]R[hCys]G[Agb]NW[hCys]RW[Gly(cPent)]C-NH2; disulfide 3-8; thioether N-12) please. 101

Quote remaining at 4 h, 20 μM reported for N=C(N)NCCC[C@@H]1NC(=O)CNC(=O)[C@@H]2CSCSCC[C@H](NC(=O)[C@H](Cc3c[nH]c4ccccc34)NC(=O)[C@H](CC(=O)O)NC1=O)C(=O)N[C@@H](CCCNC(=N)N)C(=O)N[C@@H](Cc1c[nH]c3ccccc13)C(=O)N[C@@H](C1CCCC1)C(=O)N[C@H](C(N)=O)CSCC(=O)N[C@@H](Cc1ccc3ccccc3c1)C(=O)N[C@@H](CCCNC(=N)N)C(=O)N2 [Peptide-131] ({CH2CO}-[2Nal]RCGRDW[hCys]RW[Gly(cPent)]C-NH2; linker 3-8 via CH2; thioether N-12) please. 89.2
